Reported mRNA levels Apoe by item:
Test system: PU.1 dependent gene expression
Test: RT-qPCR of mRNA levels in BV2 PU.1-Luciferase cells (validation round 3); also: test concentration or dose not given here
Assay type: cell-based, mouse
Conditions: 2-day treatment
Description: The Asinex1 and ChemDiv6 libraries contain molecules with unknown biological properties, but with low toxicity, high stability, and a broad structural diversity used to generate structure-activity-relationships (SAR) of the PU.1 inhibitors. […] In order to obtain the SAR, three rounds of validation were performed. […]

>>> experimental_value("Cc1nc(-c2ccc(S(=O)(=O)Nc3ccc(C)c(N(C)C)c3)cc2)co1")
"1.011 multiples of 1×"

Task item: Param request: mRNA levels Apoe | system PU.1 dependent gene expression | item COc1cc(NS(=O)(=O)c2ccc3c(c2)CC(C)N3C(=O)C2CCC2)cc(OC)c1OC (centres unmarked)
Reply: 1.133 multiples of 1×

Task item: Fetch value of mRNA levels Apoe on PU.1 dependent gene expression for CCCC(=O)Nc1nnc(SCc2cc(=O)c3ccc(C)cc3[nH]2)s1 .
Reply: 1.170 multiples of 1×

Task item: Look up PU.1 dependent gene expression data: mRNA levels Apoe of CCn1c(=O)c2cc(C(=O)Nc3cc(OC)c(OC)c(OC)c3)sc2c2ccccc21 , then report it.
Reply: 1.217 multiples of 1×

Task item: Name the recorded mRNA levels Apoe of Cc1ccc(C(=O)Nc2nnc(SCc3cc(=O)c4c(C)ccc(C)c4[nH]3)s2)cc1 , assay system PU.1 dependent gene expression.
Reply: 1.076 multiples of 1×

Task item: # return mRNA levels Apoe of COc1cccc2cc(C(=O)Nc3ccc(N4CCNCC4)cc3)c(=O)oc12 (system: PU.1 dependent gene expression)
Reply: 1.251 multiples of 1×

Task item: // output mRNA levels Apoe; input Cc1ccccc1NC(=O)C(C)Sc1nc2ccccc2c(=O)n1C (centres unmarked) ; system PU.1 dependent gene expression
Reply: 0.841 multiples of 1×

Task item: Return reported mRNA levels Apoe for target or system PU.1 dependent gene expression, item CCOC(=O)Cn1c(=O)n(C2CCCCC2)c2nc(-c3cccc(F)c3)nc(C(N)=O)c21 .
Reply: 0.841 multiples of 1×
